Parameter sfGFP reporter fluorescence: see the listing below.
B1: library; numbered along this chain (parent)
chain: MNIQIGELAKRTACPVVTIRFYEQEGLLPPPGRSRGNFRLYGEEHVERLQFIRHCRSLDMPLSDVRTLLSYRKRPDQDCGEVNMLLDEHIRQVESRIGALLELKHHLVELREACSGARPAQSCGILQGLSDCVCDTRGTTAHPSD

# Variants of: B1
# METHOD SUMMARY: sfGFP reporter fluorescence (15 h) (µM FITC); higher = stronger transcriptional activation
# PROTOCOL CONDITIONS: library round: Round 1; ligand: 30 µM Zn

Here is how some variants turned out for sfGFP reporter fluorescence.
SEQUENCE ENTRY	MEASURED QUANTITY	RESULT VALUE
MNIQIGELAKRTACPVVTIRFYEQEGLLPPPGRSRGNFRLYGEEHVERLQFIRHCRSLDMNLSDVRTLLSYRKRPDQDCGEVNMLLDEHIRQVVSRIGALLELKHHLVELREACSGARPAQSCGILQGLSDCVCDTRGTTAHPSD	sfGFP reporter fluorescence	0.747
MNIQIGELAKRTACPVVTIRFYEQEGLLPPPGRSRGNFRLYGEEHVERLQFIRHCRSLDMPLSDVRTLLSYRKRPDQDCGEVRMLLDEHIRQVESRIGALLELKHHLVELREACSGARPAQSCGILQGLSDCVCATRGTTAHPSD	sfGFP reporter fluorescence	0.0875
MNIQIGELAKRTACPVVTIRFYEQEGLLPPPGRSRGNFRLYGEEHVERLQFIRHCRSLDLPLSKVRTLLSYRKRPDQDCGEVNMLLDEHIRQVESRIGALLELKHHLVELLEACSGARPAQSCGILQGLSDCVCDTRGTTAHPSD	sfGFP reporter fluorescence	1.99

Incoming: Any idea what its sfGFP reporter fluorescence is? The variant is MNIQIGELAKRTACPVVTIRFYEQEGLLPPPGRSRGNFRLYGEEHVERLQFIRHCRSLDMPLSDVRTLLSYRKRPDQDCGEVNMLLDEHIRQVESRIGALLELKHHLVLLREACSGARPAQSCGILQGLSDCVCPTRGTTAHPSD
Outgoing: 0.497

Incoming: Then what about the variant MNIQIGELAKRTACPVVTIRFYEQEGLLPPPGRSRGNFRLYGEEHVERLQFIRHCRSLDMPLSDVRTLLSYRKRPDQDCGEVSMLLDEHIRQVESRIGALLELKHHLVELREACSGARPAQSCGILQGLSDCVCDTRGTTAHWSD ?
Outgoing: 0.556

Incoming: Then what about the variant MNIQIGELAKRTACPVVTIRFYEQEGLLPPPGRSRGNFRLYGEEHVERLQFIRHCRSLDMPLSDVRTLLSYRKRPDQDCGEVTMLLDEHIRQVESRIGALLELKHHLVALREACSGARPAQSCGILQGLSDCVCDTRGTTAHYSD ?
Outgoing: 0.179

Incoming: Then what about the variant MNIQIGELAKRTACPVVTIRFYEQEGLLPPPGRSRGNFRLYGEEHVERLQFIRHCRSLDMPLSDVRTLLSYRKRPDQDCGEVNMLLDEHIRQVESRIGALLELKHHLVELREACSGARPAQSCGILQGLSHCVCKTRGTTAHPSD ?
Outgoing: 0.579

Incoming: Then what about the variant MNIQIGELAKRTACPVVTIRFYEQEGLLPPPGRSRGNFRLYGEEHVERLQFIRHCRSLDMDLSKVRTLLSYRKRPDQDCGEVNMLLDEHIRQVESRIGALLELKHHLVELRHACSGARPAQSCGILQGLSDCVCDTRGTTAHPSD ?
Outgoing: 1.36
